Test: NCI Yeast Anticancer Drug Screen. Data for the rad50 strain (AID 155);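 note: 0% = growth of vehicle-only cultures of the same strain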
Conditions: S. cerevisiae rad50 strain growth inhibition; at 50.0 µM; active compounds read high
This is part of a sample that, as a whole, favours compounds with a hit. Of some 79,000 tested, about 15% had one in any assay.
Provide the recorded growth inhibition for the entries that follow.
Report the figure in % without appending any unit label.

The reported value for `CCOC(=O)Cc1ccc(-c2csc(Nc3ccc(Cl)cc3)n2)cc1` in terms of growth inhibition is 49.9

The reported value for `CCOC(CN=C=S)OCC` in terms of growth inhibition is 4.25

The reported value for `C=CCSc1nc2c(=O)n(C)c(=O)n(C)c2n1C` in terms of growth inhibition is -11.3

The reported value for `C/C=C/C#CC#C/C=C/C=C/CC` in terms of growth inhibition is 10.1

The reported value for `Nc1nnc(Cc2cccc3ccccc23)o1` in terms of growth inhibition is -1.05

The reported value for O=C1C2Cc3ccccc3CN2C(=O)N1CCN1CCCC1 (configuration not stated) in terms of growth inhibition is -19.1

The reported value for `CC(=O)Oc1ccc2c(c1)Cc1cc([N+](=O)[O-])ccc1-2` in terms of growth inhibition is 8.45

The reported value for `COc1ccccc1NC(=O)CC(C)=O` in terms of growth inhibition is 7

The reported value for `CCOC(=O)c1nc2ccc(C(F)(F)F)cc2nc1Nc1ccc(Cl)c(Cl)c1` in terms of growth inhibition is -22.1

The reported value for `COC(=O)c1nc(N)nc(C(=O)OC)c1C(=O)c1ccc(Cl)cc1Cl` in terms of growth inhibition is 7.25

The reported value for `O=[N+]([O-])c1cc(F)cc(F)c1Nc1ccccc1` in terms of growth inhibition is 2.85

The reported value for `CC1=NN2C(=O)CSC2=NC(C)(C)C1` in terms of growth inhibition is -5.35

The reported value for `NNS(=O)(=O)c1ccc(Oc2ccc(S(=O)(=O)NN)cc2)cc1` in terms of growth inhibition is 10.8

The reported value for CC(C)C1=CC2=C(C(=O)C1=O)C13CCCC(C)(C)C1CC2OC3=O (configuration not stated) in terms of growth inhibition is 14.3

The reported value for `O=C(Cc1nc(-c2ccccc2)cc(=O)n1-c1ccccc1Cl)c1ccncc1` in terms of growth inhibition is 32.4

The reported value for `CCOc1ccc(C(=O)OCCCl)cc1` in terms of growth inhibition is 9.85

The reported value for `CSCCCO` in terms of growth inhibition is -12.8

* * *

Test: NCI Yeast Anticancer Drug Screen. Data for the mec2-1 strain (AID 157)
Conditions: S. cerevisiae mec2-1 strain, at 50.0 µM, active compounds read high
The panel holds about 79,000 compounds, 15% with a hit somewhere; the sample as a whole holds those more often.
readout_name: growth inhibition (%)
Report the figure in % without appending any unit label.

The reported value for CSCCC(C(=O)O)N(C)C (stereo unspecified) in terms of growth inhibition is -21.3

The reported value for `CC1=NNC(=O)C1(C)C` in terms of growth inhibition is 0.7

The reported value for O=C(/C=C/c1ccccc1)NC1C=Nc2ccc(Cl)cc2NC1=O (stereo unspecified) in terms of growth inhibition is 53.7

The reported value for `CCc1nnc2ncccn12` in terms of growth inhibition is -10.9

The reported value for COC(=O)C1CCCC(=O)C1C(=O)OC (stereo unspecified) in terms of growth inhibition is 0.3

The reported value for `CC(C)c1ccc(/C=C2/C=C(c3ccc4ccccc4c3)OC2=O)cc1` in terms of growth inhibition is -1.7

The reported value for `CCNC(=O)Nc1ccccn1` in terms of growth inhibition is -1.55

The reported value for `N#Cc1ccc(OCCCCCOc2ccc([N+](=O)[O-])cc2)cc1` in terms of growth inhibition is 11.6

The reported value for `CCCCCCC(=O)N1SC(NC(=O)OC)=Nc2ccccc21` in terms of growth inhibition is 7.3

The reported value for `COc1ccc(-c2cc(N)c3c(c2O)C(=O)c2c(N)ccc(O)c2C3=O)cc1` in terms of growth inhibition is 4.75

The reported value for `CCCC(CCC)=C1C(=O)N=C(N)NC1=O` in terms of growth inhibition is 4.9

The reported value for `CC1(C)COC(CCl)OC1` in terms of growth inhibition is 17.9

The reported value for CC1CN=C(N(Cc2ccc(F)cc2)C(=O)Nc2ccc(Cl)cc2)S1 (stereo unspecified) in terms of growth inhibition is -8.95

The reported value for `Cc1ccccc1CN(C)CCCO` in terms of growth inhibition is -13

The reported value for `COC(=O)[C@@H](CO)NC(=O)OC(C)(C)C` in terms of growth inhibition is -15

The reported value for C=C(C)C1CC/C(C)=C/CC[C@]2(C)O[C@H]2CC/C(COC(C)=O)=C\[C@@H]1O (stereo partly specified) in terms of growth inhibition is -8.7

The reported value for `Cc1cccc(-n2c(N)cc(=O)[nH]c2=S)n1` in terms of growth inhibition is -2.2

The reported value for `O=C(Oc1ccccc1)C(c1ccccc1)c1ccccc1` in terms of growth inhibition is 0.7

The reported value for `O=C1OC(c2ccccc2)=N/C1=C\c1cccnc1` in terms of growth inhibition is -3.25

The reported value for `O=S(=O)(Cc1ccccc1)/C(=C\c1ccccc1)c1ccccc1` in terms of growth inhibition is 11.4

The reported value for `CCCCCC#CC(=O)OCC` in terms of growth inhibition is -0.9
